# protein stability index listing for each entry below
B1: SLC2A12 (parent)
chain: TRIMIGLTLVFFVQITGQPNILFY

variants of: B1; assay: protein stability index of a GFP-peptide fusion (GPS, HEK-293T) (PSI 1-6); higher = more stable; details: c terminus: a fixed tail appended;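 further: lentivirally expressed fusions sorted by FACS into six bins by GFP to DsRed ratio, PSI derived from sequencing read proportions per bin multiplied by bin number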
experimental endpoint: protein stability index

1) T16E	2.95
2) G17A	2.96
3) I15T	3.01
4) F23H	2.96
5) F11Y	3.02
6) V10F	3.06
7) L9I	3.09
